- TEST_METHOD_NOTES: Effect of volatile aldehydes on sulfur-based malodor (headspace GC/MS)
- MEASUREMENT_SETUP: 30 minutes at room temperature, 1 μL aldehyde in 10 mL headspace vial
READOUT_NAME: At least 20% butanethiol reduction at 30 minutes?

Recorded At least 20% butanethiol reduction at 30 minutes?, per entry:
MOLECULE	ENDPOINT_VALUE
O=Cc1cccs1	No
CC(CC=O)CCCC(C)(C)O (stereo not shown) [Hydroxycitronellal, 7-hydroxy-3,7-dimethyl octan-1-al]	No
CCCCC/C=C/CCC=O [Trans-4-decenal]	Yes
O=Cc1ccccc1	No
CCc1ccc(CC(C)(C)C=O)cc1	No
CC1=CC(C)C(C=O)CC1 (stereo not shown)	No

[Q] Given the molecule `COc1cc(OC)c(OC)cc1C=O` , what is its reported At least 20% butanethiol reduction at 30 minutes??
[A] No

[Q] State the recorded At least 20% butanethiol reduction at 30 minutes? for this entry: `CCOc1ccccc1C=O`
[A] Yes

[Q] Given the molecule `COc1ccccc1C=O` , what is its reported At least 20% butanethiol reduction at 30 minutes??
[A] Yes

[Q] What value of At least 20% butanethiol reduction at 30 minutes? has been reported for the following molecule? CC(C=O)Cc1ccc2c(c1)OCO2 (stereo not shown)
[A] No

[Q] # At least 20% butanethiol reduction at 30 minutes? lookup, item CCCCCCCCCC(C)C=O (stereo not shown)
[A] No

[Q] Returns the measured At least 20% butanethiol reduction at 30 minutes? for the input molecule. Input: `CC(C)CC=C(C=O)C(C)C`
[A] Yes

[Q] Entry `COc1cc(C=O)cc(OC)c1OC` has what At least 20% butanethiol reduction at 30 minutes??
[A] No

[Q] Which At least 20% butanethiol reduction at 30 minutes? is listed for CC(C)(O)CCCC1=CCC(C=O)CC1 (stereo not shown) ?
[A] No

[Q] // lookup At least 20% butanethiol reduction at 30 minutes? for `COc1ccc(C=O)cc1`
[A] No

[Q] GET /values?readout=At least 20% butanethiol reduction at 30 minutes?&item= CCCC/C=C/C=C/C=O [Trans Trans 2,4-Nonadienal]
[A] No

[Q] Bench note: what At least 20% butanethiol reduction at 30 minutes? did `CCCCCCCCCC=O` show?
[A] No

[Q] # query: At least 20% butanethiol reduction at 30 minutes? of entry `CC(C)(C)c1ccc(CCC=O)cc1`
[A] Yes

---

Could you please report measured VP (torr) @25° C. for the items listed next?
- TEST_METHOD_NOTES: Vapor pressure at 25° C.
- Type: physicochemical
- MEASUREMENT_SETUP: Table 2, materials of Accord B
Please make sure the unit comes right after the number.

[Q] Which VP (torr) @25° C. value belongs to CC(C)=CCCC(C)CCCC(C)C=O (centres unmarked) ?
[A] 0.007 torr

[Q] // returns reported VP (torr) @25° C. for input CCCCCCCCCC(C)C=O (centres unmarked)
[A] 0.030 torr

[Q] Recorded VP (torr) @25° C. for CC(C)c1cccc(C(C)CC=O)c1 (centres unmarked) [Florhydral, 3-(3-Isopropyl-phenyl)-butyraldehyde] , please?
[A] 0.008 torr

[Q] Value lookup for VP (torr) @25° C.; key = `CCc1ccc(CC(C)(C)C=O)cc1`
[A] 0.005 torr

[Q] Name the recorded VP (torr) @25° C. for CC(C=O)Cc1ccc(C(C)C)cc1 (centres unmarked) .
[A] 0.007 torr
